Test system: Glutamate receptor ionotropic, NMDA 3A (GRIN3A) ligand-binding domain
Assay summary: binders of NR3A ligand-binding domain, primary screen, biophysical, differential scanning fluorimetry, uHTS (AID 1259313)
Run conditions: NR3A LBD differential scanning fluorimetry, at 25 µM, stronger effect = higher value, 0% = protein alone, 100% = glycine-bound protein
About 8,500 (2.5%) of roughly 340,000 compounds were called active. Many of the other results were omitted from the sample, so actives are more common in it than they were.
Parameter measured: Tm shift relative to glycine control

Some compounds with known Tm shift relative to glycine control results, for comparison:
Smiles data	Tm shift relative to glycine control
COc1ccccc1-c1nnc2n1N=C(c1ccc(OC(F)F)c(OCC3CC3)c1)CS2	20.6% (active)
CC(=O)Nc1ccc(C(=O)/C=C/c2ccc[nH]2)cc1	19.4% (active)

Please examine the following record next.
Need Tm shift relative to glycine control, item Cc1nc2cc(C(F)(F)F)ccc2n1CCNc1nc(-c2cc(Cl)c(N)c(Cl)c2)cs1
-2.53% (inactive)

----------
Tested on: Glutamate receptor ionotropic, NMDA 3A (GRIN3A) ligand-binding domain
Assay summary: binders of NR3A ligand-binding domain, primary screen, biophysical, differential scanning fluorimetry, uHTS (AID 1259313)
Run conditions: NR3A LBD differential scanning fluorimetry, at 25 µM, 0% = protein alone, 100% = glycine-bound protein
The campaign covered roughly 340,000 compounds. About 8,500 (2.5%) were called active.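 Rule for the calls: active = melting temperature shift of at least 10% of the positive control shift, at one fixed dose; inactive = the rest.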 Many of the other results were omitted from the sample, so actives are more common in it than they were.
Parameter call: string, one of 1.0 for active, 0.0 for inactive

Compound	Assigned category
O=C(CNC(=O)Cc1ccccc1)N=Nc1c(O)[nH]c2ccc(Br)cc12	0.0
COC(=O)c1ccc(CN(c2ccccc2OC)S(=O)(=O)c2cccs2)o1	0.0
O=C(NCCCN1CCOCC1)c1cc2c(s1)CCC2	0.0
COc1cccc(NC(=O)CSc2nnc(-c3cccnc3)o2)c1	0.0
O=C(NC(=S)Nc1cccc2c(O)cccc12)c1cccc(Br)c1	1.0
Cc1cccc(N=C2NN=C(c3c[nH]c4ccccc34)CS2)c1	1.0
CCCCNC(=O)CSc1nc2ccc(NC(=O)CSc3nnc(COc4ccccc4C)n3C)cc2s1	0.0
O=C(NCc1ccc2c(c1)OCO2)C12CC3CC(CC(C3)C1)C2	0.0

Please indicate how the test categorized CCCCNC(=O)CSc1nc2ccc(NC(=O)CSc3nnc(N)s3)cc2s1 .
0.0

Lookup O=C(CN1CCc2ccccc21)NC(c1ccccc1)c1ccccc1
0.0

Lookup COc1cccc(OC)c1C(=O)OCC(=O)/C(C#N)=C(\C)N
0.0

Lookup O=C(Cn1nnc(-c2ccccc2)n1)N/N=C/c1ccc(-c2ccc(Cl)cc2)o1
1.0

Lookup CC1CCN(C(=O)CN(c2ccc(Oc3ccccc3)cc2)S(C)(=O)=O)CC1
0.0

Lookup NS(=O)(=O)c1ccc(N=Nc2c(O)[nH]c3ccc(Br)cc23)cc1
1.0

Lookup Oc1[nH]c2ccc(Br)cc2c1N=Nc1nn[nH]n1
0.0

Lookup Oc1ccc(-c2nnc(Nc3ccccc3)c3ccccc23)cc1
0.0

Lookup COc1cccc(NC(=O)C(Sc2nc3ccccc3c(=O)n2CC(C)C)c2ccccc2)c1 (stereo not drawn)
0.0

Lookup O=C(CC(c1ccccc1)c1ccccc1)NCC(O)c1ccc([N+](=O)[O-])cc1 (stereo not drawn)
0.0

Lookup COc1ccccc1CNC(=O)C1CCN(S(=O)(=O)c2ccc3c(c2)OCCO3)CC1
0.0

Lookup O=C1CC(c2cccc(Cl)c2)CC(O)=C1C=Nc1ccccc1 (stereo not drawn)
0.0

Lookup C/C(N)=C(/C#N)C(=O)COC(=O)c1cc(-c2cccc(Br)c2)nc2ccccc12
1.0

Lookup COc1ccc(CCNC(=O)c2ccc(NC(=O)CC3SC(N4CCCCC4)=NC3=O)cc2)cc1OC (stereo not drawn)
0.0

Lookup COc1ccc(CN2CCN(Cc3cn(C)nc3-c3ccccc3)CC2CCO)c(C)c1C (stereo not drawn)
0.0

Lookup O=C(CCNS(=O)(=O)c1ccc(Br)s1)NCc1ccccc1Cl
0.0
